# PARTICULARS: in acetic acid, 385.96 K
READOUT: solubility (mole fraction)
One number for each entry.

Prompt: Item under review: COC(=O)c1ccc2cc(C(=O)OC)ccc2c1 . Reported solubility (mole fraction)?
Completion: 0.0352

---

# PARTICULARS: in DMSO, 386.85 K
READOUT: solubility (mole fraction)
Numbers only.

Prompt: Report solubility (mole fraction) for COC(=O)c1ccc2cc(C(=O)OC)ccc2c1 please.
Completion: 0.0352

---

# PARTICULARS: in DMSO, 394.81 K
READOUT: solubility (mole fraction)
One number for each entry.

Prompt: Field request: solubility (mole fraction) | item: COC(=O)c1ccc2cc(C(=O)OC)ccc2c1
Completion: 0.0471

---

# PARTICULARS: in acetic acid, 300.35 K
READOUT: solubility (mole fraction)

Prompt: solubility (mole fraction) lookup needed for COC(=O)c1ccc2cc(C(=O)OC)ccc2c1 , thanks.
Completion: 0.000804

---

# PARTICULARS: in NMP, 293.2 K
READOUT: solubility (mole fraction)

Prompt: Record request: solubility (mole fraction) value, item COC(=O)c1ccc2cc(C(=O)OC)ccc2c1
Completion: 0.0056

---

# PARTICULARS: in NMP, 354.23 K
READOUT: solubility (mole fraction)
Answers are plain numbers.

Prompt: Return reported solubility (mole fraction); argument: COC(=O)c1ccc2cc(C(=O)OC)ccc2c1
Completion: 0.0115

---

# PARTICULARS: in DMAc, 391.14 K
READOUT: solubility (mole fraction)
One number for each entry.

Prompt: So what's the measured solubility (mole fraction) for this one? COC(=O)c1ccc2cc(C(=O)OC)ccc2c1
Completion: 0.107

---

# PARTICULARS: in NMP, 418.83 K
READOUT: solubility (mole fraction)
Answers are plain numbers.

Prompt: # input compound: COC(=O)c1ccc2cc(C(=O)OC)ccc2c1 ; wanted: its solubility (mole fraction)
Completion: 0.0328

---

# PARTICULARS: in DMF, 357.96 K
READOUT: solubility (mole fraction)
Answers are plain numbers.

Prompt: Look at this compound and give its reported solubility (mole fraction). COC(=O)c1ccc2cc(C(=O)OC)ccc2c1
Completion: 0.0272

---

# PARTICULARS: in acetic acid, 337.2 K
READOUT: solubility (mole fraction)
One number for each entry.

Prompt: Requested read-out: solubility (mole fraction). Entry: COC(=O)c1ccc2cc(C(=O)OC)ccc2c1
Completion: 0.0051

---

# PARTICULARS: in acetic acid, 366.66 K
READOUT: solubility (mole fraction)
Give bare numbers.

Prompt: Need solubility (mole fraction) of COC(=O)c1ccc2cc(C(=O)OC)ccc2c1 , thanks.
Completion: 0.0169

---

# PARTICULARS: in DMF, 303.31 K
READOUT: solubility (mole fraction)

Prompt: Find the recorded solubility (mole fraction) belonging to COC(=O)c1ccc2cc(C(=O)OC)ccc2c1 and report it.
Completion: 0.00253

---

# PARTICULARS: in DMF, 368.38 K
READOUT: solubility (mole fraction)

Prompt: Fill blank: measured solubility (mole fraction) of the compound COC(=O)c1ccc2cc(C(=O)OC)ccc2c1 is ____.
Completion: 0.0408

---

# PARTICULARS: in acetic acid, 394.71 K
READOUT: solubility (mole fraction)
Give bare numbers.

Prompt: Item COC(=O)c1ccc2cc(C(=O)OC)ccc2c1 has what recorded solubility (mole fraction)?
Completion: 0.0493
